Would you mind telling me the reported activity coefficient of each entry?
assay: activity coefficient (dimensionless); of the first substance listed, at infinite dilution; xn = mol fraction of the nth substance listed; details: 298.15 K; 238 kPa; Liquid; Chromatography; x1 = 0
Give bare numbers.

molecule	measured
CC(C)(C)Cl [2-chloro-2-methylpropane] + OCCOCCO	11.2
CC(C)(C)Cl [2-chloro-2-methylpropane] + CC(O)CO	17.3
CC(C)(C)Cl [2-chloro-2-methylpropane] + OCCO	51.7

Batch request: activity coefficient per item, same order as input.
1. CC(C)(C)Cl [2-chloro-2-methylpropane] + CCCCO
2. CC(C)(C)Cl [2-chloro-2-methylpropane] + OCCOCCOCCO

[2.4, 6.8]

----------
experiment: activity coefficient (dimensionless); of the first substance listed, at infinite dilution; xn = mol fraction of the nth substance listed; conditions: 298.15 K; 238 kPa; Liquid; Chromatography; x1 = 0
experimental readout: activity coefficient
Give bare numbers.

Solved cases below.
compound	activity coefficient
CC(C)(C)Cl [2-chloro-2-methylpropane] + ClCCCl	0.99
CC(C)(C)Cl [2-chloro-2-methylpropane] + C1CCCCC1	1.2
CC(C)(C)Cl [2-chloro-2-methylpropane] + CC(C)O	3
CC(C)(C)Cl [2-chloro-2-methylpropane] + CCCCCCC	1.02
CC(C)(C)Cl [2-chloro-2-methylpropane] + CO	6.1

Batch request: activity coefficient per item, same order as input.
1. CC(C)(C)Cl [2-chloro-2-methylpropane] + CCO
2. CC(C)(C)Cl [2-chloro-2-methylpropane] + CCCCCCCC
3. CC(C)(C)Cl [2-chloro-2-methylpropane] + CNC=O
4. CC(C)(C)Cl [2-chloro-2-methylpropane] + COCCO
5. CC(C)(C)Cl [2-chloro-2-methylpropane] + CC(O)C(C)O
6. CC(C)(C)Cl [2-chloro-2-methylpropane] + c1ccccc1

[4.5, 1.3, 6.3, 2.9, 12.3, 0.89]

The reported numbers originate from the NIST ThermoML archive (doi:10.1016/j.fluid.2014.09.011).
